- METHOD NOTES: Plasma pharmacokinetics after a single s.c. dose
- Format: in vivo, human
- TEST CONDITIONS: human, plasma, sc, 10 mg, t 1/2, median, 10 mg single s.c. dose, healthy adults, NCA; median, N = 5
*1 amine or outer side, *2 acyl side, *3 side chain or, on linkers, in order; H or OH if unused. Where a SMILES comes first, the peptide text is derived from it. Bridges are numbered along the chain shown (N, C = ends). [ ]: non-standard residue; d: D form. The star is where a group is joined. Orn(4R-OH,5R-OCH2CH2NMe3+) = C[N+](C)(C)CCO[C@@H](N[*:3])[C@H](O)C[C@H](N[*:1])C(=O)[*:2]; pTerphenylCO(4''-OnC5H11) = CCCCCOc1ccc(-c2ccc(-c3ccc(C(=O)*)cc3)cc2)cc1; hTyr(3S-OH,4S-OH) = N[C@H](C(=O)O)[C@H](O)[C@@H](O)c1ccc(O)cc1; Pro(3S-OH,4S-Me) = C[C@H]1CN[C@H](C(=O)O)[C@H]1O; Hyp = O=C(O)[C@@H]1C[C@@H](O)CN1
PROPERTY MEASURED: half-life

compound="CCCCCOc1ccc(-c2ccc(-c3ccc(C(=O)N[C@H]4C[C@@H](O)[C@@H](OCC[N+](C)(C)C)NC(=O)[C@@H]5[C@@H](O)[C@@H](C)CN5C(=O)[C@H]([C@@H](C)O)NC(=O)[C@H]([C@H](O)[C@@H](O)c5ccc(O)cc5)NC(=O)[C@@H]5C[C@@H](O)CN5C(=O)[C@H]([C@@H](C)O)NC4=O)cc3)cc2)cc1 [rezafungin] ({pTerphenylCO(4''-OnC5H11)}-[Orn(4R-OH,5R-OCH2CH2NMe3+)]T[Hyp][hTyr(3S-OH,4S-OH)]T[Pro(3S-OH,4S-Me)]; lactam 1-C)" property_measured=half-life observed_measurement="193 h"

* * *

- METHOD NOTES: Plasma pharmacokinetics after a single s.c. dose
- Format: in vivo, human
- TEST CONDITIONS: human, plasma, sc, 10 mg, T max, geometric mean, 10 mg single s.c. dose, healthy adults, NCA, N = 6
*1 amine or outer side, *2 acyl side, *3 side chain or, on linkers, in order; H or OH if unused. Where a SMILES comes first, the peptide text is derived from it. Bridges are numbered along the chain shown (N, C = ends). [ ]: non-standard residue; d: D form. The star is where a group is joined. Orn(4R-OH,5R-OCH2CH2NMe3+) = C[N+](C)(C)CCO[C@@H](N[*:3])[C@H](O)C[C@H](N[*:1])C(=O)[*:2]; pTerphenylCO(4''-OnC5H11) = CCCCCOc1ccc(-c2ccc(-c3ccc(C(=O)*)cc3)cc2)cc1; hTyr(3S-OH,4S-OH) = N[C@H](C(=O)O)[C@H](O)[C@@H](O)c1ccc(O)cc1; Pro(3S-OH,4S-Me) = C[C@H]1CN[C@H](C(=O)O)[C@H]1O; Hyp = O=C(O)[C@@H]1C[C@@H](O)CN1
PROPERTY MEASURED: Tmax (h)

compound="CCCCCOc1ccc(-c2ccc(-c3ccc(C(=O)N[C@H]4C[C@@H](O)[C@@H](OCC[N+](C)(C)C)NC(=O)[C@@H]5[C@@H](O)[C@@H](C)CN5C(=O)[C@H]([C@@H](C)O)NC(=O)[C@H]([C@H](O)[C@@H](O)c5ccc(O)cc5)NC(=O)[C@@H]5C[C@@H](O)CN5C(=O)[C@H]([C@@H](C)O)NC4=O)cc3)cc2)cc1 [rezafungin] ({pTerphenylCO(4''-OnC5H11)}-[Orn(4R-OH,5R-OCH2CH2NMe3+)]T[Hyp][hTyr(3S-OH,4S-OH)]T[Pro(3S-OH,4S-Me)]; lactam 1-C)" property_measured=Tmax observed_measurement=112
